target: Human IP6K1 (Homo sapiens, UniProt Q92551); construct: GST (N, cleaved yes); made in house; host or cells: C43 E. coli, pGEX-6P-2; assay: IP6K1 high-throughput screen of the Sigma LOPAC (ADP-Glo Max, single point); format: biochemical; settings: LOPAC single-point screen; Z-score from plate average and StDev;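 further: final compound concentration 10µM in 5% DMSO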
Sequence (Q92551 whole entry): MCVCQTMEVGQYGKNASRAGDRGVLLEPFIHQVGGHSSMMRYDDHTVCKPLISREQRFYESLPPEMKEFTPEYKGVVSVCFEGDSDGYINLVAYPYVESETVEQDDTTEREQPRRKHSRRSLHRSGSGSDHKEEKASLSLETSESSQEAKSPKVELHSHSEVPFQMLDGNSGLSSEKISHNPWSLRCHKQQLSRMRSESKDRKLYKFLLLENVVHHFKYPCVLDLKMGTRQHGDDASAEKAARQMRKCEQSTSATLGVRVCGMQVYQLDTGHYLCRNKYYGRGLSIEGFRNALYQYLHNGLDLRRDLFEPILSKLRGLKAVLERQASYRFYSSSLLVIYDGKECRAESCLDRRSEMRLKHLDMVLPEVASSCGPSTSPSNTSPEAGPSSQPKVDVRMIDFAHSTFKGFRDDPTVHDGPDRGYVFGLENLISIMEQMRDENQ
Recorded measurements of Z-score, one per entry
Answer using only a numeral; do not append any unit.

> print(dat)
                                   molecule                                    target  recorded.number
1  CCCCCCCCCCCCCCCCCC(=O)NCC(COP(=O)([O-])OCC[N+](C)(C)C)OCC (racemic)  Human IP6K1 (Homo sapiens, UniProt Q92551)            1.584
2  CCCCCCCCCCCCC/C=C/[C@@H](O)[C@@H](N)CO [Sphingosine]  Human IP6K1 (Homo sapiens, UniProt Q92551)            1.552
3  CC(C)NC[C@H](O)c1ccc(O)c(O)c1.O=C(O)C(O)C(O)C(=O)O [R(-)-Isoproterenol (+)-bitartrate]  Human IP6K1 (Homo sapiens, UniProt Q92551)            1.427

Form: molecule = CC(COc1ccc(/C=C/c2ccccc2)cc1)[N+](C)(C)C.[I-] (centres unmarked) ; Z-score = 1.499

Form: molecule = O=C(O)[C@@H]1C[C@H](C(=O)O)N1 [cis-Azetidine-2,4-dicarboxylic acid] ; Z-score = 1.959

* * *

Recorded measurements of Raw Signal, one per entry
target: Human IP6K1 (Homo sapiens, UniProt Q92551); construct: GST (N, cleaved yes); made in house; host or cells: C43 E. coli, pGEX-6P-2; assay: IP6K1 high-throughput screen of the Sigma LOPAC (ADP-Glo Max, single point); format: biochemical; details: LOPAC single-point screen, ADP-Glo Max raw signal per well;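 further: final compound concentration 10µM in 5% DMSO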
Structures can show the parent of a compound that is named as a salt.
Answer using only a numeral; do not append any unit.

// solved cases for Raw Signal follow
> print(dat)
                                   compound  recorded.number
1                Cn1c(=O)[nH]c2ncn(C)c2c1=O            53863
2  C[C@]12CC[C@@H]3c4ccc(O)cc4CC[C@H]3[C@@H]1CCC2=O            53604
3  CC(C)[C@H]1CN[C@H](C(=O)O)[C@H]1CC(=O)O [Dihydrokainic acid]            53229
4  CCCn1c(C)c(C(=O)c2cccc3ccccc23)c2ccccc21            54462
5  CC1CCN(CC[C@H]2CCCN2S(=O)(=O)c2cccc(O)c2)CC1.Cl [SB 269970 hydrochloride]            57058
6  CNCCCC1c2ccccc2C=Cc2ccccc21 [Protriptyline hydrochloride]            55179
7             COc1ccc2[nH]cc(CCNC(C)=O)c2c1            53452
8  CC1CNCCN1S(=O)(=O)c1cccc2cnccc12.Cl.Cl (stereo not drawn)            52932

Consider now this further compound.
# Raw Signal measured on Human IP6K1 (Homo sapiens, UniProt Q92551) for item "O=C(N[C@@H](Cc1ccccc1)C(=O)CCl)OCc1ccccc1" = 56278

* * *

Recorded measurements of Raw Signal, one per entry
target: Human IP6K1 (Homo sapiens); construct: GST (N, cleaved yes); made in house; host or cells: C43 E. coli, pGEX-6P-2; assay: IP6K1 high-throughput screen of the Sigma LOPAC (ADP-Glo Max, single point); format: biochemical; details: Sigma LOPAC single-point screen, ADP-Glo Max raw signal per well
Structures can show the parent of a compound that is named as a salt.
Answer using only a numeral; do not append any unit.

// solved cases for Raw Signal follow
Molecule	Target	Raw Signal
O=C([O-])/C=C/C(O)c1ccc(Cl)cc1.[Na+] (stereo not drawn) [NCS-356]	Human IP6K1 (Homo sapiens)	58969
NCC(O)(CS(=O)(=O)O)c1ccc(Cl)cc1 (stereo not drawn) [2-Hydroxysaclofen]	Human IP6K1 (Homo sapiens)	61124
COc1ccc(Cc2nccc3cc(OC)c(OC)cc23)cc1OC [Papaverine hydrochloride]	Human IP6K1 (Homo sapiens)	61808
CN(C)C(=O)N=NC(=O)N(C)C [N,N,N ,N -Tetramethylazodicarboxamide]	Human IP6K1 (Homo sapiens)	57249
C[N+](C)(C)CCOC(N)=O [Carbachol]	Human IP6K1 (Homo sapiens)	62361

Form: molecule = CCCCCCCCCC(=O)N[C@H](CN1CCOCC1)[C@H](O)c1ccccc1.Cl (racemic) ; Raw Signal = 58472

Form: molecule = CN[C@H](CC(=O)O)C(=O)O [N-Methyl-D-aspartic acid] ; Raw Signal = 57133

Form: molecule = Cn1cnc2c(NCc3ccccc3)nc(NCCO)nc21 [Olomoucine] ; Raw Signal = 60982

Form: molecule = O=c1n(CCCN2CCN(c3cccc(Cl)c3)CC2)nc2ccccn12 [Trazodone hydrochloride] ; Raw Signal = 58114

Form: molecule = O=C([O-])CCC(NC(=O)c1ccccc1C(=O)[O-])C(=O)[O-].[Na+].[Na+].[Na+] [Phthalamoyl-L-glutamic acid trisodium] ; Raw Signal = 58114

* * *

molecular target: Human IP6K1 (Homo sapiens); construct: GST (N, cleaved yes); made in house; host or cells: C43 E. coli, pGEX-6P-2; test: IP6K1 high-throughput screen of the Sigma LOPAC (ADP-Glo Max, single point); assay type: biochemical; conditions: LOPAC single-point screen, Z-score against plate average and StDev
Counter-ions that a name gives are not always drawn.
Reported Property: Z-score

# Z-score measured on Human IP6K1 (Homo sapiens) for item CC(C)NCC(O)COc1ccc(CCOCC2CC2)cc1 (stereo not shown) [Betaxolol hydrochloride] = 0.2157

* * *

target: Human IP6K1 (Homo sapiens, UniProt Q92551); construct: GST (N, cleaved yes); made in house; host or cells: C43 E. coli, pGEX-6P-2; test: IP6K1 high-throughput screen of the Sigma LOPAC (ADP-Glo Max, single point); type: biochemical; conditions: LOPAC single-point screen, Z-score against plate average and StDev;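 further: final compound concentration 10µM in 5% DMSO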
Counter-ions that a name gives are not always drawn.
Assign a class from recorded Z-score; defined classes: band 1: < 0.003; band 2: ≥ 0.003 and < 0.1; band 3: ≥ 0.1

Answered cases to consult:
> print(dat)
                                   compound                                    target  assigned.label
1  CCCCCN(CCCCC)C(=O)C(CCC(=O)O)NC(=O)c1ccc(Cl)c(Cl)c1 (stereo not drawn) [Lorglumide sodium]  Human IP6K1 (Homo sapiens, UniProt Q92551)          band 2
2  CC(C)C[C@H](NC(=O)[C@H](O)[C@H](N)Cc1ccccc1)C(=O)O [Epibestatin hydrochloride]  Human IP6K1 (Homo sapiens, UniProt Q92551)          band 3
3  COc1ccc2c(c1)c(CC(=O)O)c(C)n2C(=O)c1ccc(Cl)cc1 [Indomethacin]  Human IP6K1 (Homo sapiens, UniProt Q92551)          band 2
4  N=C(N)c1ccc(OCCCCCOc2ccc(C(=N)N)cc2)cc1 [Pentamidine isethionate]  Human IP6K1 (Homo sapiens, UniProt Q92551)          band 2
5  C[C@](N)(Cc1ccc(O)cc1)C(=O)O [L-alpha-Methyl-p-tyrosine]  Human IP6K1 (Homo sapiens, UniProt Q92551)          band 1
6  CC(=O)OCC1=C(C(=O)[O-])N2C(=O)[C@@H](NC(=O)CCC[C@@H](N)C(=O)[O-])[C@H]2SC1.[Zn+2] [Cephalosporin C zinc salt]  Human IP6K1 (Homo sapiens, UniProt Q92551)          band 1
7     Cn1c(=O)c2c(ncn2C)n(C)c1=O [Caffeine]  Human IP6K1 (Homo sapiens, UniProt Q92551)          band 1
8  CN(C)C(=O)Oc1ccc[n+](C)c1 [Pyridostigmine bromide]  Human IP6K1 (Homo sapiens, UniProt Q92551)          band 3

Moving on to the next compound.
(Q) Please classify: O=C(O)c1nn(Cc2ccc(Cl)cc2Cl)c2ccccc12 [Lonidamine]
(A) band 3

* * *

target: Human IP6K1 (Homo sapiens, UniProt Q92551); construct: GST (N, cleaved yes); made in house; host or cells: C43 E. coli, pGEX-6P-2; experiment: IP6K1 high-throughput screen of the Sigma LOPAC (ADP-Glo Max, single point); assay type: biochemical; conditions: LOPAC single-point screen, ADP-Glo Max luminescence raw signal per well;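 further: final compound concentration 10µM in 5% DMSO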
Counter-ions that a name gives are not always drawn.
Recorded measurements of Raw Signal, one per entry
Answer using only a numeral; do not append any unit.

// solved cases for Raw Signal follow
> print(dat)
                                   molecule  reported.property  recorded.number
1  CC(=O)N1CCN(c2ccc(OCC3COC(Cn4ccnc4)(c4ccc(Cl)cc4Cl)O3)cc2)CC1 (stereo not shown) [Ketoconazole]         Raw Signal            49591
2  O=C1NC(c2cccc([N+](=O)[O-])c2)=CCN1c1ccccc1O [Icilin]         Raw Signal            49844
3  CCCN1CCOC2c3cc(O)ccc3OCC21.Cl (racemic) [(±)-PD 128,907 hydrochloride]         Raw Signal            53572

Form: molecule = COCC(=O)O[C@]1(CCN(C)CCCc2nc3ccccc3[nH]2)CCc2cc(F)ccc2[C@@H]1C(C)C [Mibefradil dihydrochloride] ; Raw Signal = 48952
